Entry source: the RNAGym collection of RNA variant scans (doi:10.1073/pnas.2313332121)

B1: TPR 5TU (parent)
chain: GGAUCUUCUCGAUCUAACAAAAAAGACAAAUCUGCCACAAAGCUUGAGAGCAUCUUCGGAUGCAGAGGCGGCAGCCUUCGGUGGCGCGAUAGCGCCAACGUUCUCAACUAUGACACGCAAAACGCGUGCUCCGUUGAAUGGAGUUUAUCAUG

Variants of: B1
Assay: polymerase ribozyme fitness, log enrichment relative to wild type (log ratio); higher = more active; in vitro selection for triplet polymerase activity
Variants at the floor of the assay were thinned out.
ASSAY_METRIC: polymerase ribozyme fitness (log ratio)
Give the figure only, with no unit attached.

Param item = A17U A37U G59C G81A A97G C116G ; retrieve measured polymerase ribozyme fitness (log ratio).
-1.87

Param item = U13G U15A C51U C96A A121G ; retrieve measured polymerase ribozyme fitness (log ratio).
-2.76

Param item = A22U G86U ; retrieve measured polymerase ribozyme fitness (log ratio).
-1.05

Param item = U31G C99U U145G ; retrieve measured polymerase ribozyme fitness (log ratio).
-0.861

Param item = A26U C87U ; retrieve measured polymerase ribozyme fitness (log ratio).
-1.74
